B1: Guanyl-specific ribonuclease Sa, P05798 (parent)
chain: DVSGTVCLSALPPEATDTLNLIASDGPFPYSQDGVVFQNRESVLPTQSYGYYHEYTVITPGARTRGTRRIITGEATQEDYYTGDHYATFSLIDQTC

Variants of: B1
Applied Conditions: Kitasatospora aureofaciens; pH 5.5; Thermal; DSC; sodium acetate potassium chloride 0.01 M 0.05 M; reversible: yes (90-95%); structure 1RGG; whole UniProt chain shown
Measurement Type: unfolding enthalpy (calorimetric) (kcal/mol)

• H85Q = 94
• R65A = 81
• E74K = 103
• E41K = 97
